- tested on: T1, Ioc4 full-length (Saccharomyces cerevisiae, UniProt Q04213 1-475)
- T1 sequence: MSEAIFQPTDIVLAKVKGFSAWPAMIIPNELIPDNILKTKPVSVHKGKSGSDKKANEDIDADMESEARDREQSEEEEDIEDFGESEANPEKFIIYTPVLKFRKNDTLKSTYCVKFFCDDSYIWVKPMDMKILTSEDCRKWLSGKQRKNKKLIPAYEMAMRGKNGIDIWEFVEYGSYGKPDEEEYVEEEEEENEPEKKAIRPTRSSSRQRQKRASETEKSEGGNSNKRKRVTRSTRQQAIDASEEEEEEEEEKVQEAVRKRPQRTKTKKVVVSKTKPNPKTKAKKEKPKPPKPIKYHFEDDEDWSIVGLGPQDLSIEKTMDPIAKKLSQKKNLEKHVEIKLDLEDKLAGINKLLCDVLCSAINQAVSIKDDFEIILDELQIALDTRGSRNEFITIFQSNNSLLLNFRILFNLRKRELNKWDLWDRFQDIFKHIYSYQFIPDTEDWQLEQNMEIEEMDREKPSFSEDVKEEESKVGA
- test method notes: EMSA; EMSA; 15 fmol NCP (30 fmol unmodified NCP) per reaction; 5% native PAGE (37.5:1) in 0.4x TBE, 2% glycerol; binding buffer, pH and temperature not given (as in cited work)
- experimental parameters: protein: recombinant; tags: N-terminal 6xHis-MBP; label: Cy5 on sense strand; blunt
pKd: −log10 of the molar value.
assay readout: pKd

> print(dat)
                                     binder  quantitative.result
1  dsDNA 30 bp (601-derived EMSA probe) (dsDNA) DNA 1: GGCAAGGTCGCTGTTCAATACATGCACAGG DNA 2: CCTGTGCATGTATTGAACAGCGACCTTGCC                 7.47
2  dsRNA 30 bp (AT rich) (dsRNA) RNA 1: GGCAAGGUCGCUGUUCAAUACAUGCACAGG RNA 2: CCUGUGCAUGUAUUGAACAGCGACCUUGCC                 7.25
